- TEST_TARGET: FGFR1 (SEQ ID NO: 1, amino acids 458-765) (Homo sapiens (Human), UniProt P11362)
- Sequence (P11362 458-765): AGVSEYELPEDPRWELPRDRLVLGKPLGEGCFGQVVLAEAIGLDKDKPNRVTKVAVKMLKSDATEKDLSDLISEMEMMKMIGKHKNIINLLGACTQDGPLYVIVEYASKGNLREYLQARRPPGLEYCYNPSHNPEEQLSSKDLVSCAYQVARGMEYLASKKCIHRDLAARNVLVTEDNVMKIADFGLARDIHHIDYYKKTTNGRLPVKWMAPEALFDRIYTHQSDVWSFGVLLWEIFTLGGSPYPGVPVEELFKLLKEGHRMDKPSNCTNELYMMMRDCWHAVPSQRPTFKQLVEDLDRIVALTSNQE
- ASSAY_SUMMARY: LC/MS FGFR1 kobs assay (covalent protein modification)
- Assay type: binding
- CONDITIONS_USED: 500 nM FGFR1, 3 μM compound
QUANTITY_NAME: FGFR1 Enz kobs (min⁻¹)

In [3]: df
Out[3]:
                                    compound  unit_descriptor  obs_value
 0  C=CC(=O)N1CC(OC)(C(=O)N2CCC(n3cc(-c4cc(OC)c5c(Cl)cnn5c4)cn3)CC2)C1            min⁻¹    0.00241
 1  C=CC(=O)N1CC(C(=O)N2CCC3(C2)CN(c2ccc(-c4cc(OC)c5c(C#N)cnn5c4)cn2)C3)C1            min⁻¹    0.00388
 2  C=CC(=O)N1CC2(CC(C(=O)N3CCC(n4cc(-c5cc(OC)c6c(C#N)cnn6c5)cn4)CC3)C2)C1            min⁻¹    0.00093
 3  C=CC(=O)N1CC(OC)(C(=O)N2CCC(n3ncc(-c4cc(OC)c5c(Cl)cnn5c4)c3C)CC2)C1            min⁻¹    0.00318
 4  COc1cc(-c2cnn(C3CCN(C(=O)C4(C)CN(C(=O)/C=C/CN(C)C)C4)CC3)c2C)cn2ncc(C#N)c12            min⁻¹     0.0025
 5  COc1cc(-c2cnn(C3CCN(C(=O)C4(OC)CN(C(=O)/C=C/CN(C)C)C4)CC3)c2C)cn2ncc(Cl)c12            min⁻¹    0.00471
 6  C=CC(=O)N1CCC[C@H](C(=O)N2CCC(n3cc(-c4cc(OC)c5c(C#N)cnn5c4)cn3)CC2)C1            min⁻¹    0.00054
 7  C=CS(=O)(=O)N[C@@H]1CC[C@H](C(=O)N2CCC(n3cc(-c4cc(OC)c5c(C#N)cnn5c4)cn3)CC2)C1            min⁻¹    0.00583
 8  C=CC(=O)Nc1ccc(C(=O)N2CC[C@H](n3cc(-c4cc(OC)c5c(C#N)cnn5c4)cn3)C2)cc1            min⁻¹    0.00332
 9  C=CC(=O)N1CC(C(=O)N2CC(n3cc(-c4cc(OC)c5c(C#N)cnn5c4)cn3)C2)C1            min⁻¹    0.00146
10  C=CC(=O)N1CC(F)(C(=O)N2CCC(n3ncc(-c4cc(OC)c5c(C#N)cnn5c4)c3C)CC2)C1            min⁻¹    0.00492
11  COc1cc(-c2c(C)nn(C3CCN(C(=O)C4(F)CN(C(=O)/C=C/CN(C)C)C4)CC3)c2C)cn2ncc(C#N)c12            min⁻¹    0.00744
12  C=CC(=O)Nc1cccc(C(=O)N2CCC(n3cc(-c4cc(OC)c5c(C#N)cnn5c4)cn3)CC2)c1            min⁻¹    0.00187
13  COc1cc(-c2cnc(N3CCN(C(=O)C4(F)CN(C(=O)/C=C/CN(C)C)C4)CC3)cc2C)cn2ncc(C#N)c12            min⁻¹    0.00576
14  COc1cc(-c2ccc(N3CCN(C(=O)C4(F)CN(C(=O)/C=C/CN(C)C)C4)CC3)nc2C)cn2ncc(C#N)c12            min⁻¹    0.00847
15  C=CC(=O)Nc1ccc(C(=O)N2CC[C@H](n3cc(-c4cc(OC)c5c(C#N)cnn5c4)cn3)C2)c(OC)c1            min⁻¹    0.00422
16  C#CC(=O)N1CC(C(=O)N2CCC(n3cc(-c4cc(OC)c5c(C#N)cnn5c4)cn3)CC2)C1            min⁻¹    0.01359
17  C=CC(=O)N1CCC(C#N)(C(=O)N2CCC(n3cc(-c4cc(OC)c5c(C#N)cnn5c4)cn3)CC2)C1 (stereo not shown)            min⁻¹    0.00146
18  COc1cc(-c2nnn(C3CCN(C(=O)C4(F)CN(C(=O)/C=C/CN(C)C)C4)CC3)c2C)cn2ncc(C#N)c12            min⁻¹    0.00713
19  COc1cc(-c2cnn(C3CCN(CC4CN(C(=O)/C=C/CN5CCCCC5)C4)CC3)c2)cn2ncc(C#N)c12            min⁻¹    0.00204
20  COc1cc(-c2cnn(C3CCN(C(=O)C4(F)CN(C(=O)/C=C/C(F)(F)F)C4)CC3)c2C)cn2ncc(C#N)c12            min⁻¹    0.03227
21  C=CC(=O)N1CC(C(=O)N2CCN(c3ncc(-c4cc(OC)c5c(C#N)cnn5c4)cc3C)CC2)C1            min⁻¹    0.00304
22  C=CC(=O)N1CC(CN2CCC(n3ncc(-c4cc(OC)c5c(Cl)cnn5c4)c3C)CC2)C1            min⁻¹    0.00303
23  CCc1c(-c2cc(OC)c3c(C#N)cnn3c2)cnn1C1CCN(C(=O)C2(F)CN(C(=O)/C=C/CN(C)C)C2)CC1            min⁻¹    0.00455
24  C=CC(=O)N1CCC(F)(C(=O)N2CCC(n3cc(-c4cc(OC)c5c(C#N)cnn5c4)cn3)CC2)C1 (stereo not shown)            min⁻¹    0.00104
25  C=CC(=O)N1CC(C(=O)N2CCC(n3cc(-c4cc(OC)c5c(C#N)cnn5c4)c(CC)n3)CC2)C1            min⁻¹    0.00276
26  C=CC(=O)N1CCC(C(=O)N2CCC(n3cc(-c4cc(OC)c5c(C#N)cnn5c4)cn3)CC2)C(F)(F)C1 (stereo not shown)            min⁻¹    0.00168
27  C=CC(=O)Nc1ccc(C(=O)N2CCC[C@@H](n3cc(-c4cc(OC)c5c(C#N)cnn5c4)cn3)C2)cc1            min⁻¹    0.00247
